compounds and their reported cell viability
Test system: Caco-2
ASSAY REMARKS: cell viability relative to DMSO; higher = less toxic
CONDITIONS USED: 72 h; 1000 nM
Express the result in % but write the number alone.

# input Which cell viability value belongs to C[C@@H](O)[C@H]1C(=O)N2C(C(=O)[O-])=C(SC3Cn4cnc[n+]4C3)[C@H](C)[C@H]12 (some centres not stated) [biapenem] ?
# output 93.3

# input Which cell viability value belongs to COC1(C[S@@+]([O-])c2ccccc2)CCN(CCc2c[nH]c3ccc(F)cc23)CC1 ?
# output 102

# input Which cell viability value belongs to O=C1Cc2c([nH]c3ccc(Br)cc23)-c2ncccc2N1 [1-azakenpaullone] ?
# output 109

// moving on: another record for cell viability
# input Which cell viability value belongs to CCCCC(CC)CCC(CC(C)C)OS(=O)(=O)O (configuration not stated) [sodium-tetradecyl-sulfate] ?
# output 87.6

* * *

Tested on: A549-ACE2 infected with SARS-CoV-2
ASSAY REMARKS: cell count relative to DMSO; higher = less toxic
CONDITIONS USED: 3 µM; 24 h
OUTCOME MEASURE: cell count (%)
Express the result in % but write the number alone.

Sample records with cell count:
# input Which cell count value belongs to c1cnc(N2CCN(Cc3ccc4c(c3)OCO4)CC2)nc1 ?
# output 96

# input Which cell count value belongs to CCCOC(C(=O)OC1CCN(C)CC1)(c1ccccc1)c1ccccc1 ?
# output 119

More entries:
# input Which cell count value belongs to CN1CCCN(C(c2ccccc2)c2ccc(Cl)cc2)CC1 (stereo unspecified) ?
# output 117

# input Which cell count value belongs to c1ccc(-c2nn3c(c2-c2ccnc4cc(OCCN5CCOCC5)ccc24)CCC3)nc1 ?
# output 104

# input Which cell count value belongs to O=Nc1ccc(O)c2ncccc12 ?
# output 76

# input Which cell count value belongs to OCCN1C[C@H](O)[C@@H](O)[C@H](O)[C@H]1CO ?
# output 100

* * *

System: U2OS
ASSAY REMARKS: drug sensitivity score (DSS) for viability; higher = more toxic; extreme values may be limits of the assay
CONDITIONS USED: 72 h
Counter-ions that a name gives are not always drawn.
OUTCOME MEASURE: drug sensitivity score
I only need the number, thanks.

# input Given the entry COC(=O)C(c1ccccc1)C1CCCCN1 (centres undefined) [METHYLPHENIDATE HYDROCHLORIDE] , what drug sensitivity score was observed with U2OS?
# output 0

# input Given the entry COc1oc(=O)c2cc(N)ccc2c1Cl , what drug sensitivity score was observed with U2OS?
# output 0

# input Given the entry C[N+](C)(C)CCCCCNCC12CC3CC(CC(C3)C1)C2 , what drug sensitivity score was observed with U2OS?
# output 0

# input Given the entry CN(C)CCCC(=O)Nc1ccc(C(=O)Nc2cccc(Nc3ncc(Cl)c(-c4c[nH]c5ccccc45)n3)c2)cc1 , what drug sensitivity score was observed with U2OS?
# output 1.5

# input Given the entry N[C@@H](Cc1ccc(Cl)cc1)C(=O)O (racemic) [fenclonine-(+/-)] , what drug sensitivity score was observed with U2OS?
# output 0

# input Given the entry Nc1ccc(F)cc1NC(=O)c1ccc(CNC(=O)/C=C/c2cccnc2)cc1 [chidamide] , what drug sensitivity score was observed with U2OS?
# output 8.4

# input Given the entry Nc1ccn([C@@H]2O[C@@](CO)(CCl)[C@@H](O)[C@H]2F)c(=O)n1 , what drug sensitivity score was observed with U2OS?
# output 0

# input Given the entry O=C(c1ccc2nccnc2c1)N1CCCCC1 , what drug sensitivity score was observed with U2OS?
# output 0

More entries:
# input Given the entry CCn1nc(C(=O)O)c(=O)c2cc3c(cc21)OCO3 , what drug sensitivity score was observed with U2OS?
# output 0

# input Given the entry CCCN1CCC[C@@H]2Cc3n[nH]cc3C[C@H]21 [quinpirol-(-)] , what drug sensitivity score was observed with U2OS?
# output 0

# input Given the entry NC(=O)N/N=C/c1ccc([N+](=O)[O-])o1 , what drug sensitivity score was observed with U2OS?
# output 0

# input Given the entry Cc1nc(N)sc1-c1ccnc(Nc2ccc(N3CCOCC3)cc2)n1 , what drug sensitivity score was observed with U2OS?
# output 4.1
